Assay: Particle size by laser diffractometry (Malvern Mastersizer) following micronisation
Format: physicochemical
Conditions: feed, before micronisation
Excerpt: In a still further embodiment the composition comprises rabeximod in the form of a dry powder, e.g. a micronized powder. The particle size distribution can be determined by means of laser diffractometry. […] Typically, in accordance with the present invention, the Rabeximod (micronized) dry powder has a particle size characterized by a D10 within the range of 0.5-1.0 μm, a D50 within the range of 1.5-3.5 μm, and/or a D90 within the range of 5.5-9.9 μm, when measured using laser light diffractometry. […]
Note to self: Feed particles % <10 μm under 30% means rule met, ties and anything higher get rule not met.

Cc1cc2nc3c4cc(Cl)ccc4n(CC(=O)NCCN(C)C)c3nc2cc1C [compound 153]
rule not met
Cc1cc2nc3c4cc(Cl)ccc4n(CC(=O)NCCN(C)C)c3nc2cc1C [262-2]
rule not met
Cc1cc2nc3c4cc(Cl)ccc4n(CC(=O)NCCN(C)C)c3nc2cc1C [146-32]
rule not met

Now, please, on to the next molecule.
Q: Dear reviewer, please state whether Cc1cc2nc3c4cc(Cl)ccc4n(CC(=O)NCCN(C)C)c3nc2cc1C [262-1] has Feed particles % <10 μm strictly beneath 30%.
Ans: rule met

---

D(0.5) reference
experiment: Particle size by laser diffractometry (Malvern Mastersizer) following micronisation; format: physicochemical; conditions: result after micronisation
Give the number; μm is assumed, so skip it.

// below: answered compounds
Cc1cc2nc3c4cc(Cl)ccc4n(CC(=O)NCCN(C)C)c3nc2cc1C [262-1]
2.2
Cc1cc2nc3c4cc(Cl)ccc4n(CC(=O)NCCN(C)C)c3nc2cc1C [262-2]
2.2
Cc1cc2nc3c4cc(Cl)ccc4n(CC(=O)NCCN(C)C)c3nc2cc1C [146-32]
2.2
Cc1cc2nc3c4cc(Cl)ccc4n(CC(=O)NCCN(C)C)c3nc2cc1C [compound 153]
1.9

Q: Data request, read-out D(0.5), for Cc1cc2nc3c4cc(Cl)ccc4n(CC(=O)NCCN(C)C)c3nc2cc1C [compound 149]
Ans: 2.0

---

assay: Particle size by laser diffractometry (Malvern Mastersizer) following micronisation; type: physicochemical; details: result after micronisation
recorded_metric: D(0.1) (μm)
Dear colleague, please return just the value in μm, with no unit written.

Example entries begin here.
Cc1cc2nc3c4cc(Cl)ccc4n(CC(=O)NCCN(C)C)c3nc2cc1C [compound 149]
0.6
Cc1cc2nc3c4cc(Cl)ccc4n(CC(=O)NCCN(C)C)c3nc2cc1C [262-2]
0.7
Cc1cc2nc3c4cc(Cl)ccc4n(CC(=O)NCCN(C)C)c3nc2cc1C [262-1]
0.7

Q: Reported D(0.1) for Cc1cc2nc3c4cc(Cl)ccc4n(CC(=O)NCCN(C)C)c3nc2cc1C [compound 153] : what is it?
Ans: 0.6

Q: Give the measured D(0.1) of Cc1cc2nc3c4cc(Cl)ccc4n(CC(=O)NCCN(C)C)c3nc2cc1C [146-32] .
Ans: 0.7

---

assay: Particle size by laser diffractometry (Malvern Mastersizer) following micronisation; type: physicochemical; conditions: result after micronisation
We label by threshold. Values of D(0.9) strictly beneath 8 μm are yes (1). Values of 8 μm and up are no (0).

Cc1cc2nc3c4cc(Cl)ccc4n(CC(=O)NCCN(C)C)c3nc2cc1C [262-2]
yes (1)
Cc1cc2nc3c4cc(Cl)ccc4n(CC(=O)NCCN(C)C)c3nc2cc1C [262-1]
no (0)
Cc1cc2nc3c4cc(Cl)ccc4n(CC(=O)NCCN(C)C)c3nc2cc1C [compound 149]
yes (1)

Q: Below 8 μm on D(0.9)? Entry Cc1cc2nc3c4cc(Cl)ccc4n(CC(=O)NCCN(C)C)c3nc2cc1C [compound 153]
Ans: yes (1)

---

assay: Particle size by laser diffractometry (Malvern Mastersizer) following micronisation; format: physicochemical; settings: result after micronisation
Reported % <10 μm values follow for various molecules
Just the number in %, nothing appended.

Worked cases, answers included:
Cc1cc2nc3c4cc(Cl)ccc4n(CC(=O)NCCN(C)C)c3nc2cc1C [262-2]
92.6
Cc1cc2nc3c4cc(Cl)ccc4n(CC(=O)NCCN(C)C)c3nc2cc1C [compound 149]
99.1
Cc1cc2nc3c4cc(Cl)ccc4n(CC(=O)NCCN(C)C)c3nc2cc1C [compound 153]
99.1
Cc1cc2nc3c4cc(Cl)ccc4n(CC(=O)NCCN(C)C)c3nc2cc1C [146-32]
98.1

Q: # % <10 μm lookup, item Cc1cc2nc3c4cc(Cl)ccc4n(CC(=O)NCCN(C)C)c3nc2cc1C [262-1]
Ans: 94.5

Cited source for all entries: patent US12673056B2
